Target: full-length beta-Catenin (Uniprot ID P35222) (Homo sapiens (Human)) (UniProt P35222)
Sequence (P35222 whole entry): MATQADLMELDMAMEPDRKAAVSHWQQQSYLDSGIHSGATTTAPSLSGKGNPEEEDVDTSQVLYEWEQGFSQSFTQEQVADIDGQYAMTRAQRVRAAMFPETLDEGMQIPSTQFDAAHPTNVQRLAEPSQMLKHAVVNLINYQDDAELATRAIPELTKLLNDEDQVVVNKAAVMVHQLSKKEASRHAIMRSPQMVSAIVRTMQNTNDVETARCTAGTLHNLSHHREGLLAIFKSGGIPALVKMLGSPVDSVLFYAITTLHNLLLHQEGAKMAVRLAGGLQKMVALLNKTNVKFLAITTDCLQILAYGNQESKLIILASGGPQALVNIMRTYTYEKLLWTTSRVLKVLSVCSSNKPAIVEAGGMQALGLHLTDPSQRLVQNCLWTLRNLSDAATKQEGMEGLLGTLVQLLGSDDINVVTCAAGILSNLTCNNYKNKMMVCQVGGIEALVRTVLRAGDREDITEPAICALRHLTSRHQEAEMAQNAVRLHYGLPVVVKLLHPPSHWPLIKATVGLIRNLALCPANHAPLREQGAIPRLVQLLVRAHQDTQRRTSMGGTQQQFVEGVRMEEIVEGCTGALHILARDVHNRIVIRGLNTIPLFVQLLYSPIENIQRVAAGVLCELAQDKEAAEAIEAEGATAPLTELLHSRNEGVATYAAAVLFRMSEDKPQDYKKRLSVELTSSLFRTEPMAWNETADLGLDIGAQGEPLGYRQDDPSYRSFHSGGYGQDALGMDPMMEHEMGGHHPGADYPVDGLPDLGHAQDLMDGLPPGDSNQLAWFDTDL
Assay: fluorescence polarization competition; peptide titrated against 10 nM full-length beta-catenin + 10 nM 5FAM-TCF4(10-53) probe
pIC50: −log10 of the molar value. Starred links: 1 amine or outer side, 2 acyl side, 3 side chain; linkers in the order of their positions; H or OH if unused. Positions of bridges follow the written chain, without caps; N, C: chain ends. Non-standard residues stand in square brackets, D forms with d. Primed or numbered codes have the meaning given here. B5(4) = 2,2-bis(4-pentenyl)glycine = 2-amino-2-(pent-4-en-1-yl)hept-6-enoic acid (stitching residue), C=CCCCC(CCCC=C)(N[*:1])C(=O)[*:2]; B5(3) = 2,2-bis(4-pentenyl)glycine (stitching residue), C=CCCCC(CCCC=C)(N[*:1])C(=O)[*:2]; Ala(1H-tetrazol-5-yl) = N[C@@H](Cc1nnn[nH]1)C(=O)O; Bta = N[C@@H](Cc1csc2ccccc12)C(=O)O; αAllylPro = C=CC[C@@]1(C(=O)O)CCCN1; 3Thi = N[C@@H](Cc1ccsc1)C(=O)O; S8 = C=CCCCCCC[C@](C)(N)C(=O)O
RECORDED_METRIC: pIC50

binder="Ac-[αAllylPro]DA[B5(3)]DEAAFQ[S8][3Thi][Bta]Q-NH2 (staple 1-4, 4-11; also: staple isomer composition, earlier eluting HPLC peak) [I-426]" recorded_metric=pIC50 obs_value=6.96

(A) Ac-[αAllylPro]DA[B5(4)]DEAAFQ[S8][3Thi][Bta]Q-NH2 (staple 1-4, 4-11; also: staple isomer composition, later-eluting HPLC peak) [I-427]
(B) Ac-[αAllylPro]DA[B5(3)]D[Ala(1H-tetrazol-5-yl)]AAFQ[S8]F[Bta]Q-NH2 (staple 1-4, 4-11) [I-413]
(C) Ac-[αAllylPro]DA[B5(4)]DEAAFN[S8]F[Bta]-NH2 (staple 1-4, 4-11) [I-432]
Q) Arrange the 3 binders by rising pIC50, starting with the smallest. # format: label list in the order the request specifies
A) C, B, A
(C: 6.84, B: 7.05, A: 7.41)
